PBM binding z-score reference
- Test system: PXR homodimer (NR concentration 270 nM)
- protocol summary: PBM binding z-score (relative to random genomic background probes); higher = stronger binding; sequences stand for … in GC…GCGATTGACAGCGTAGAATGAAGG
// keep it numeric: no unit symbol after the value

Solved entries (count: 8):
INSERT INTO measurements (sequence_text, readout_type, assay_result) VALUES
  ('AATACAGGGTCACTGGGCCAGAGTAGGTACGAAT', 'PBM binding z-score', 0.0493),
  ('TAGCCTAGGCCATGGGCCAGTATACCACGCGAAC', 'PBM binding z-score', -1.11),
  ('CGTACTAGGTCACCAGGACAGTGAAGAGGTTGGA', 'PBM binding z-score', 0.369),
  ('CAAACTAGGTCACAGAGGTCAAAGTTCGTGCGTA', 'PBM binding z-score', 12.2),
  ('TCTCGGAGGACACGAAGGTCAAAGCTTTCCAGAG', 'PBM binding z-score', 2.71),
  ('CGTCCAAGGTCAATGCAAGGTCAGTGAAAGCATT', 'PBM binding z-score', 2.19),
  ('CCTACTGGGTCATTCAGAGGTCATTGATCATATG', 'PBM binding z-score', 3.7),
  ('CGAACTAGGTGACCAGGACAGTGAAGAGGTTGGA', 'PBM binding z-score', -0.15);

What reported PBM binding z-score corresponds to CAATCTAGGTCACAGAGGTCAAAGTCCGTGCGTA on PXR homodimer (NR concentration 270 nM)?
11.9

What reported PBM binding z-score corresponds to CGAACTAGGTCAAAGGACTGTGAAAGGCGACGTA on PXR homodimer (NR concentration 270 nM)?
-0.596

What reported PBM binding z-score corresponds to AGTCAAAGTTCACGACGAGGTAACGTAAAGCACG on PXR homodimer (NR concentration 270 nM)?
2.18

What reported PBM binding z-score corresponds to CGAACTAGCTCAAGGACAGTGAATCTCCGCACGC on PXR homodimer (NR concentration 270 nM)?
-0.354
